Test description: Caspase-3/7 induction in CHO-K1 cells by small molecules, qHTS cell viability counter screen (AID 1346979); also: nearly all actives have a fitted effect of over 35% in size
Assay conditions: CellTiter-Fluor fluorescence, 17 h; series mostly up to 92.4 µM
Results filed as inconclusive are left out. Activity calls are given as the source filed them. Calls follow the shape of the dose curve; as a rule, active = well fitted cell-killing curve with a large enough effect in the repeat runs; inconclusive = weak or mixed curves, or effect the other way; inactive = no such curve, though single readings can be large or run the other way.
Outcome codes: Yes for active, No for inactive

>>> print(df.to_string())
                              sample_smiles  assigned_label
0                        CC1=CC=C(C(C)C)CC1              No
1  COc1cc(C(=O)OCCCN2CCCN(CCCOC(=O)c3cc(OC)c(OC)c(OC)c3)CC2)cc(OC)c1OC             Yes
2          CCN(CC)CCNC(=O)c1cc(Br)c(N)cc1OC              No
3                                  CCCCCCCN              No
4                             O=C(O)c1ccco1              No
5              CCCCCCCC/C=C\CCCCCCCC(=O)OCC              No
6                   CCCCCCCCCCCCN1CCCCCC1=O              No
